- Target System: human melanin concentrating hormone type 2 receptor (MCH-2R) (human, UniProt Q969V1 1-340)
- Sequence (Q969V1 whole entry, form in doubt): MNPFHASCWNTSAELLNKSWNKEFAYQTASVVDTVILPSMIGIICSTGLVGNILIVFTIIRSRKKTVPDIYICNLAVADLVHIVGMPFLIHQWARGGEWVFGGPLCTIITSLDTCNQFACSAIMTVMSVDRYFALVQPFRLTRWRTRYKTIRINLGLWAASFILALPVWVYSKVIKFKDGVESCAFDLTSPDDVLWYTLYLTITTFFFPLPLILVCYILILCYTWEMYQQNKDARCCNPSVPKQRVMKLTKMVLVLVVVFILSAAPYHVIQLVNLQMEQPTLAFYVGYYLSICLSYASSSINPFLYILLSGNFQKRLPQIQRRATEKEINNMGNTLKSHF
- Method Summary: cell-based or functional assay
Bridges are numbered along the chain shown (N, C = ends). Where no end group is shown, it is not given here. [ ]: non-standard residue; d: D form. hArg = N=C(N)NCCCC[C@H](N)C(=O)O
Measured Quantity: EC50 (aequorin functional assay) (nM)

Binder	EC50 (aequorin functional assay) [nM]
DFDMLRCMLGRVYRPCWQV (ligand, disulfide 7-16 (inferred), cyclic 19-amino acid peptide; also called hMCH; mammalian MCH) [human MCH (melanin-concentrating hormone), SEQ. ID. NO. 1]	30.7
RCMLGRVXRPC (Phe(pNH2)^13) [SEQ. ID. NO. 30]	24
Ac-RCMLARVYRPC-NH2 (disulfide 2-11; SMILES CSCC[C@@H]1NC(=O)[C@@H](NC(=O)[C@H](CCCNC(=N)N)NC(C)=O)CSSC[C@@H](C(N)=O)NC(=O)[C@@H]2CCCN2C(=O)[C@H](CCCNC(=N)N)NC(=O)[C@H](Cc2ccc(O)cc2)NC(=O)[C@H](C(C)C)NC(=O)[C@H](CCCNC(=N)N)NC(=O)[C@H](C)NC(=O)[C@H](CC(C)C)NC1=O, also called Ala^10) [SEQ. ID. NO. 7]	7.7
Ac-RCMLSRVYRPC-NH2 (disulfide 2-11; SMILES CSCC[C@@H]1NC(=O)[C@@H](NC(=O)[C@H](CCCNC(=N)N)NC(C)=O)CSSC[C@@H](C(N)=O)NC(=O)[C@@H]2CCCN2C(=O)[C@H](CCCNC(=N)N)NC(=O)[C@H](Cc2ccc(O)cc2)NC(=O)[C@H](C(C)C)NC(=O)[C@H](CCCNC(=N)N)NC(=O)[C@H](CO)NC(=O)[C@H](CC(C)C)NC1=O, also called Ser^10) [SEQ. ID. NO. 10]	44
Ac-RCML[dA][hArg]VYRPC-NH2 (disulfide 2-11 (inferred), also called D-Ala^10, Harg^11) [SEQ. ID. NO. 36]	19
Ac-RCML[dF]RVYRPC-NH2 (disulfide 2-11 (inferred), also called D-Phe^10) [SEQ. ID. NO. 17]	25
